These data points were gathered from ChEMBL document CHEMBL2440017.

# test details: Ratio of AUC (0 to infinity) in Sprague-Dawley rat brain to AUC (0 to infinity) in Sprague-Dawley rat at 2 mg/kg, iv
# Assay type: ADME, organism-based
# Parameters: dose 2 mg/kg, route intravenous
# stated conditions: read-out: Ratio AUC
measured quantity: Kp

# given smiles, measured quantity, test value
records = [
    ("Cc1cc(N2CC[C@H](N3CCC[C@@H]3C)C2)ccc1NC(=O)C1CCOCC1", "Kp", 0.33),
]

* * *

# test details: AUC (0 to infinity) in OF1 mouse plasma at 2 mg/kg, iv
# Format: ADME, organism-based
# Parameters: dose 2 mg/kg, route intravenous, time infinity
measured quantity: AUC(0-inf) (ng·h/mL)

# given smiles, measured quantity, test value
data = [
    ("Cc1cc(N2CC[C@H](N3CCC[C@@H]3C)C2)ccc1NC(=O)C1CCOCC1", "AUC(0-inf)", 1100),
]

* * *

# test details: Elimination half life in OF1 mouse plasma at 2 mg/kg, iv
# Format: ADME, organism-based
# Set-up: dose 2 mg/kg, route intravenous
# stated conditions: read-out: beta t1/2 (converted)
measured quantity: half-life (h)

# given smiles, unit spec, test value
data = [
    ("Cc1cc(N2CC[C@H](N3CCC[C@@H]3C)C2)ccc1NC(=O)C1CCOCC1", "h", 3.6),
]

* * *

# test details: Solubility of the compound in gastrointestinal tract simulation medium
# Format: physicochemical

# given smiles, solubility
data = [
    ("Cc1cc(N2CC[C@H](N3CCC[C@@H]3C)C2)ccc1NC(=O)C1CCOCC1", "> 2500 µg/mL"),
]

* * *

# test details: Volume of distribution in Sprague-Dawley rat plasma at 2 mg/kg, iv
# Assay type: ADME, organism-based
# Design: dose 2 mg/kg, route intravenous
measured quantity: Vd (L/kg)

# given smiles, unit spec, test value
measured = [
    ("Cc1cc(N2CC[C@H](N3CCC[C@@H]3C)C2)ccc1NC(=O)C1CCOCC1", "L/kg", 3.1),
]

* * *

# test details: AUC in OF1 mouse plasma at 10 mg/kg, po
# Assay type: ADME, organism-based
# Parameters: dose 10 mg/kg, route oral

# given smiles, AUC, ng·h/mL
records = [
    ("Cc1cc(N2CC[C@H](N3CCC[C@@H]3C)C2)ccc1NC(=O)C1CCOCC1", 3200),
]

* * *

# test details: AUC (0 to infinity) in OF1 mouse brain at 2 mg/kg, iv
# Assay type: ADME, organism-based
# Design: time infinity, dose 2 mg/kg, route intravenous

# given smiles, AUC(0-inf) [ng·h/mL]
records = [
    ("Cc1cc(N2CC[C@H](N3CCC[C@@H]3C)C2)ccc1NC(=O)C1CCOCC1", 380),
]

* * *

# test details: AUC (0 to infinity) in Sprague-Dawley rat plasma at 10 mg/kg, po
# Format: ADME, organism-based
# Set-up: time infinity, dose 10 mg/kg, route oral

# given smiles, unit spec, AUC(0-inf)
data = [
    ("Cc1cc(N2CC[C@H](N3CCC[C@@H]3C)C2)ccc1NC(=O)C1CCOCC1", "ng·h/mL", 8400),
]

* * *

# test details: Elimination half life in OF1 mouse plasma at 10 mg/kg, po
# Format: ADME, organism-based
# Set-up: dose 10 mg/kg, route oral
# stated conditions: read-out: beta t1/2 (converted)

# given smiles, half-life / h
data = [
    ("Cc1cc(N2CC[C@H](N3CCC[C@@H]3C)C2)ccc1NC(=O)C1CCOCC1", 2.3),
]

* * *

Recorded pKi by entry
# system tested: UniProt Q865E1
pKi: −log10 of the molar value.

# molecule, pKi
rows = [
    ("CC(=O)N1CCCC1C(=O)Nc1ccc(N2CCC(N3CCCC3C)C2)cc1 (mixture of isomers)", 7.85),
    ("CC1CCCN1C1CCN(c2ccc(NC(=O)C3CC4CCC3C4)cc2)C1 (stereo not given)", 7.80),
    ("Cc1cc(N2CC[C@H](N3CCC[C@@H]3C)C2)ccc1NC(=O)C1C(C)(C)C1(C)C", 9.26),
    ("Cc1cc(N2CC[C@H](N3CCC[C@@H]3C)C2)ccc1NC(=O)C1CCOCC1", 9.01),
    ("Cc1cc(N2CC[C@H](N3CCC[C@@H]3C)C2)ccc1NC(=O)CC1CCCC1", 9.07),
]

* * *

# system tested: Histamine H3 receptor (Homo sapiens, UniProt Q9Y5N1)
# Sequence (Q9Y5N1 whole entry): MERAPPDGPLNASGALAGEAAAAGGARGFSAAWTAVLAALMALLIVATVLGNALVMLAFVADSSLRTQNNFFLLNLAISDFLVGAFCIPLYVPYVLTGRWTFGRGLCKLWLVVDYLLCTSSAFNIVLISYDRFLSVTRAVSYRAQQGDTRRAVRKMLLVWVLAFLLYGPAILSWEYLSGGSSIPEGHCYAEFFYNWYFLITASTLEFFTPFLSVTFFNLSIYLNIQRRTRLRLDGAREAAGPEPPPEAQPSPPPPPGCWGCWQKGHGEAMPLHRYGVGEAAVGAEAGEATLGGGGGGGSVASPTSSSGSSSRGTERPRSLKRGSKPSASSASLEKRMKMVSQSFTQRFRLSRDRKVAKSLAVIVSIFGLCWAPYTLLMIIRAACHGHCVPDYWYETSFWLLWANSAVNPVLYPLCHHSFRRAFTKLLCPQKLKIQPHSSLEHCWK
# test details: Antagonist activity at human histamine H3 receptor expressed in CHO cells co-expressing CRE-Luc
measured quantity: EC50 (nM)

# given smiles, system tested, measured quantity, unit spec, test value
rows = [
    ("Cc1cc(N2CC[C@H](N3CCC[C@@H]3C)C2)ccc1NC(=O)C1CCOCC1", "Histamine H3 receptor (Homo sapiens, UniProt Q9Y5N1)", "EC50", "nM", 0.9),
]

* * *

# test details: Drug degradation in gastrointestinal tract simulation medium after 48 hrs at room temperature
# Type: physicochemical
# stated conditions: read-out: Drug degradation

# given smiles, degraded at 48 h
data = [
    ("Cc1cc(N2CC[C@H](N3CCC[C@@H]3C)C2)ccc1NC(=O)C1CCOCC1", "< 2%"),
]

* * *

pKi: −log10 of the molar value.
Listed here: compounds with reported pKi for Histamine receptor H3 (Macaca mulatta, UniProt Q865E1).

# compound, system tested, pKi
rows = [
    ("CC(=O)N1CCCC1C(=O)Nc1ccc(N2CCC(N3CCCC3C)C2)cc1C (mixture of isomers)", "Histamine receptor H3 (Macaca mulatta, UniProt Q865E1)", 7.24),
    ("Cc1cc(N2CC[C@H](N3CCC[C@@H]3C)C2)ccc1NC(=O)C1CCCO1 (stereo partly drawn)", "Histamine receptor H3 (Macaca mulatta, UniProt Q865E1)", 8.13),
    ("Cc1cc(NC(=O)C2CC3CCC2C3)ccc1N1CCC(N2CCCC2C)C1 (mixture of isomers)", "Histamine receptor H3 (Macaca mulatta, UniProt Q865E1)", 6.89),
]

* * *

# test details: AUC in OF1 mouse brain at 10 mg/kg, po
# Assay type: ADME, organism-based
# Set-up: dose 10 mg/kg, route oral
measured quantity: AUC (ng·h/mL)

# given smiles, measured quantity, unit spec, test value
rows = [
    ("Cc1cc(N2CC[C@H](N3CCC[C@@H]3C)C2)ccc1NC(=O)C1CCOCC1", "AUC", "ng·h/mL", 1200),
]

* * *

# system tested: UniProt:P08684
# test details: Inhibition of CYP3A4 (unknown origin) at 0.5 uM
# Format: ADME
measured quantity: inhibition at 0.5 µM

# given smiles, system tested, measured quantity, test value
measured = [
    ("Cc1cc(N2CC[C@H](N3CCC[C@@H]3C)C2)ccc1NC(=O)C1CCOCC1", "UniProt:P08684", "inhibition at 0.5 µM", "49%"),
]

* * *

# test details: Drug degradation in DMSO after 48 hrs at room temperature
# Type: physicochemical
# stated conditions: read-out: Drug degradation

# given smiles, degraded at 48 h
rows = [
    ("Cc1cc(N2CC[C@H](N3CCC[C@@H]3C)C2)ccc1NC(=O)C1CCOCC1", "< 2%"),
]

* * *

# system tested: CYP3A4 (Homo sapiens)
# Sequence (P08684 whole entry): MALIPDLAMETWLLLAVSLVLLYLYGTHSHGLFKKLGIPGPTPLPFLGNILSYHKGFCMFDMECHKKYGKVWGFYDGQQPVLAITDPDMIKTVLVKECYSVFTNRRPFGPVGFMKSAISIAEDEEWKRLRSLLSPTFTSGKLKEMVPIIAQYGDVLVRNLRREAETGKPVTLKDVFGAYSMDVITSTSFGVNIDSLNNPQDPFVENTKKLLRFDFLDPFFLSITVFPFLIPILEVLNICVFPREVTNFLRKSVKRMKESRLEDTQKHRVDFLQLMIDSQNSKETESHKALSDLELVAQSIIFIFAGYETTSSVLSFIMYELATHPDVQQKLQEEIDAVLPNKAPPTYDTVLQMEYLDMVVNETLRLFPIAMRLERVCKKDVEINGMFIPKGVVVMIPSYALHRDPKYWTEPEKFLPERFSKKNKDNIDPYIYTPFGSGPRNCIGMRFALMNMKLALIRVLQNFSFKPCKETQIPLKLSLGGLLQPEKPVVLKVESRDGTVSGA
# test details: Inhibition of CYP3A4 (unknown origin) at 5 uM
# Assay type: ADME
measured quantity: inhibition at 5 µM (%)

# given smiles, test value
data = [
    ("Cc1cc(N2CC[C@H](N3CCC[C@@H]3C)C2)ccc1NC(=O)C1CCOCC1", 61),
]

* * *

# test details: AUC (0 to infinity) in Sprague-Dawley rat plasma at 2 mg/kg, iv
# Type: ADME, organism-based
# Design: time infinity, dose 2 mg/kg, route intravenous

# given smiles, AUC(0-inf)
data = [
    ("Cc1cc(N2CC[C@H](N3CCC[C@@H]3C)C2)ccc1NC(=O)C1CCOCC1", "2100 ng·h/mL"),
]

* * *

# test details: Elimination half life in Sprague-Dawley rat plasma at 2 mg/kg, iv
# Assay type: ADME, organism-based
# Parameters: dose 2 mg/kg, route intravenous
# stated conditions: read-out: beta t1/2 (converted)
measured quantity: half-life (h)

# given smiles, test value
records = [
    ("Cc1cc(N2CC[C@H](N3CCC[C@@H]3C)C2)ccc1NC(=O)C1CCOCC1", 4.3),
]

* * *

# test details: Oral bioavailability in OF1 mouse plasma at 10 mg/kg
# Assay type: ADME, organism-based
measured quantity: bioavailability (%)

# given smiles, unit spec, test value
measured = [
    ("Cc1cc(N2CC[C@H](N3CCC[C@@H]3C)C2)ccc1NC(=O)C1CCOCC1", "%", 58),
]

* * *

# Test system: Plasma
# test details: Clearance in Sprague-Dawley rat plasma at 2 mg/kg, iv
# Assay type: ADME, organism-based
# Design: dose 2 mg/kg, route intravenous
# stated conditions: in vivo

# given smiles, clearance [L/h/kg]
rows = [
    ("Cc1cc(N2CC[C@H](N3CCC[C@@H]3C)C2)ccc1NC(=O)C1CCOCC1", 1),
]
